Target or system Thymidine kinase, cytosolic (Homo sapiens, UniProt P04183); recorded quantity pIC50.
Worth noting: pIC50 values are minus log10 of concentrations stated in mol/L.

The observed pIC50 for Cc1cn([C@H]2C[C@H](n3cc(-c4ccccc4)nn3)[C@@H](CO)O2)c(=O)[nH]c1=O when tested with Thymidine kinase, cytosolic (Homo sapiens, UniProt P04183) stands at 4.00

The observed pIC50 for Cc1cn([C@H]2C[C@H](n3cc(-c4ccc(F)cc4)nn3)[C@@H](CO)O2)c(=O)[nH]c1=O when tested with Thymidine kinase, cytosolic (Homo sapiens, UniProt P04183) stands at 4.36

---
The observed pIC50 for Cc1cn([C@H]2C[C@H](n3cc(-c4ccccn4)nn3)[C@@H](CO)O2)c(=O)[nH]c1=O when tested with Thymidine kinase, cytosolic (Homo sapiens, UniProt P04183) stands at 4.28

The observed pIC50 for Cc1cn([C@H]2C[C@H](n3cc(Cc4ccccc4)nn3)[C@@H](CO)O2)c(=O)[nH]c1=O when tested with Thymidine kinase, cytosolic (Homo sapiens, UniProt P04183) stands at 4.11

The observed pIC50 for Cc1cn([C@H]2C[C@H](n3cc(CCc4ccccc4)nn3)[C@@H](CO)O2)c(=O)[nH]c1=O when tested with Thymidine kinase, cytosolic (Homo sapiens, UniProt P04183) stands at 4.22
